- tgt: Orexin receptor type 2 (Homo sapiens)
- Sequence (O43614 whole entry): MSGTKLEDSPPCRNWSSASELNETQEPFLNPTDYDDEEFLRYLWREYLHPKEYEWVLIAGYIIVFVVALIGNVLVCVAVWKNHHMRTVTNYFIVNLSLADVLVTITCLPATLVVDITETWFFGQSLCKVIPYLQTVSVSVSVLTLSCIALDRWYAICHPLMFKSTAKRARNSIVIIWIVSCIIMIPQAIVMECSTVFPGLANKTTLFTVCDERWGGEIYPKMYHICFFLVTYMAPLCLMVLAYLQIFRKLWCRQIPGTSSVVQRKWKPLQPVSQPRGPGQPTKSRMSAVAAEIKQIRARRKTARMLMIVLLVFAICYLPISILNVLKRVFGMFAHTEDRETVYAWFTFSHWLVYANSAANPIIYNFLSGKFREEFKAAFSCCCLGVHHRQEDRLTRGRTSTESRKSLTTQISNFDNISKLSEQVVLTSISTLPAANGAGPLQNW
- protocol.details: Binding affinity to orexin receptor 2 (unknown origin)
Provide the reported pKi of each item.
One number for each entry, as −log10 of the molar value.

Cc1nc(C(=O)N2CCC[C@H]2Cc2nnc(-c3ccccc3)o2)c(-c2ccccc2F)s1	6.89
CN(C)c1ccc(NC(=O)Nc2ccnc3c(F)ccc(F)c23)cc1	6.30
[3H]c1cccc([3H])c1-c1nnc(C[C@@H]2CCCN2C(=O)c2nc(C)sc2-c2ccccc2F)o1	6.89
Cc1c(S(=O)(=O)Cc2ccc(F)cc2)c2ccccn2c1CC(=O)N(C)Cc1ccc(F)cc1	8.24

Below is a list of molecules. For each, state its recorded pKi.
1. Cc1ccc(-c2ncccn2)c(C(=O)N2C[C@H](COc3ccc(F)cn3)CC[C@H]2C)c1 [FILOREXANT]
2. CNC(=O)[C@@H](c1ccccc1)N1CCc2cc(OC)c(OC)cc2[C@@H]1CCc1ccc(C(F)(F)F)cc1 [ALMOREXANT]

1. 9.52
2. 8.10

// batch mode: one pKi value per listed entry
1. CC1(C)OC[C@H](NC(=O)Nc2ccc(Br)cc2Br)[C@H](c2ccccc2)O1
2. Cc1cc(NC(=O)Nc2ccc(N(C)C)cc2)c2cc(F)cc(F)c2n1

1. 8.22
2. 5.85

====

- tgt: Orexin receptor type 2 (Homo sapiens) (UniProt O43614)
- Sequence (whole entry): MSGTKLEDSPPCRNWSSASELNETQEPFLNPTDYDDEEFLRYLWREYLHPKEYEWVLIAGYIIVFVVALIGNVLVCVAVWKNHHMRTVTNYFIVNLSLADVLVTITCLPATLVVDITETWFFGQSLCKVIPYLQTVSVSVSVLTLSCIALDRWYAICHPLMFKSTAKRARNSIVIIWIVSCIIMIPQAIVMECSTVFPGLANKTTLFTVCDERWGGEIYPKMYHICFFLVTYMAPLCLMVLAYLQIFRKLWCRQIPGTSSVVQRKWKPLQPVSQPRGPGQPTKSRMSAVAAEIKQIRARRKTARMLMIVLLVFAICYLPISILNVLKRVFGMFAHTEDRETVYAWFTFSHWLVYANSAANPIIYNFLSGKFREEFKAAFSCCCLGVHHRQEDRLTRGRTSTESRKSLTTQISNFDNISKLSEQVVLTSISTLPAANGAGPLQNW
- protocol.details: Binding affinity to orexin receptor 2 (unknown origin)
Given measured Kb, output label 1 if it is greater than or equal to 0.06 µM and label 0 if not.

Cc1cnn(-c2ccc(C)nc2C(=O)N2C[C@@H]3C[C@@H]3C[C@H]2CNc2ncc(C(F)(F)F)cn2)c1	label 0
CCCOc1ccc(C)nc1C(=O)N1C[C@@H]2C[C@@H]2C[C@H]1CNc1ncc(C(F)(F)F)cn1	label 1
Cc1nc(C(=O)N2CC3(CC3)C[C@H]2CNc2ccc(Cl)cn2)c(-c2ccccc2)s1	label 1
Cc1nc(C(=O)N2CC3(CC3)C[C@H]2CNc2ncc(Cl)cn2)c(-c2ccccc2)s1	label 1
Cc1cc(C)nc(NC[C@@H]2CC3(CC3)CN2C(=O)c2nc(C)sc2-c2ccccc2)n1	label 0
COc1c(F)cccc1C(=O)N1C[C@@H](C)CC[C@H]1CNc1ccc(Br)cn1 (racemic)	label 1
CCOc1ccc(C)nc1C(=O)N1C[C@@H]2C[C@@H]2C[C@H]1CNc1ncc(C)cn1	label 1
Cc1ccc(NC[C@@H]2C[C@H]3C[C@H]3CN2C(=O)c2nc(C)ccc2OCC2CC2)nc1	label 0
CCCOc1ccc(C)nc1C(=O)N1C[C@@H]2C[C@@H]2C[C@H]1CNc1cnc(C)c(C)n1	label 0

Next item in the queue.
Exam item: decide whether the reported Kb for `Cc1ccc(-c2ncccc2C)c(C(=O)N2C[C@@H]3C[C@@H]3C[C@H]2CNc2ncc(C(F)(F)F)cn2)n1` is at least 0.06 µM.
label 0

====

- tgt: Orexin receptor type 2 (Homo sapiens, UniProt O43614)
- protocol.details: Antagonist activity at human orexin receptor 2 expressed in CHO cells assessed as inhibition of orexin-A-induced calcium flux by FLIPR assay
- Format: functional, cell-based
readout.kind: Ki (nM)
Give bare numbers, in nM.

I am curious: what Ki value has been reported for `Cc1cc(C)nc(N2CC[C@@H]3CN(C(=O)c4cc(F)ccc4-n4nccn4)[C@H]3C2)n1` ?
18

====

- tgt: Orexin/Hypocretin receptor type 1 (Homo sapiens)
- protocol.details: Antagonist activity at human orexin receptor 1 expressed in CHO cells assessed as inhibition of orexin-A-induced calcium flux by FLIPR assay
- Format: functional, cell-based
readout.kind: pKi
One number for each entry, as −log10 of the molar value.

Worked examples, 2 molecules total:
Cc1ccc(-n2nccn2)c(C(=O)N2C[C@H](COc3ncccc3C)OC[C@H]2C)c1	6.14
Cc1cc(C)nc(N2CC[C@@H]3CN(C(=O)c4cc(F)ccc4-n4nccn4)[C@H]3C2)n1	5.85

Could you now consider this next molecule?
# get_value(readout='pKi', item= `Cc1ccc(-n2nccn2)c(C(=O)N2C[C@H](COc3nccc4ccccc34)OC[C@H]2C)c1` )
8.66

====

- tgt: Orexin/Hypocretin receptor type 1 (Homo sapiens, UniProt O43613)
- Sequence (O43613 whole entry): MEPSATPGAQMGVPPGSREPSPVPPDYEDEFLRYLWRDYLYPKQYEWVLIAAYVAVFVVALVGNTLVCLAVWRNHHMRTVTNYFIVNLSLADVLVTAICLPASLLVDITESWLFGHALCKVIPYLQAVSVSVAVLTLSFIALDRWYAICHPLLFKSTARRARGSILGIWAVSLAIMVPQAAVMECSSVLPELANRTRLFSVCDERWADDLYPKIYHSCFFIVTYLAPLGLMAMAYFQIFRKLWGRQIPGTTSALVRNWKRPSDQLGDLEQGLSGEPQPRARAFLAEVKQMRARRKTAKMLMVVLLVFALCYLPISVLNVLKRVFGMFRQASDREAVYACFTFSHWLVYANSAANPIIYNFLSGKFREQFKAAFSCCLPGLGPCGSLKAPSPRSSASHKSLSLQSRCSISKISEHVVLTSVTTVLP
- protocol.details: Binding affinity to orexin receptor 1 (unknown origin)
readout.kind: IC50
Write the figure, then the unit, nothing else.

IC50 for `COc1ccc(C[C@H]2c3cc(OC)c(OC)cc3CCN2[C@@H](C(=O)NC(C)C)c2ccccc2)cc1OC` ?
6 nM

====

- tgt: Orexin receptor type 2 (Homo sapiens, UniProt O43614)
- Sequence (O43614 whole entry): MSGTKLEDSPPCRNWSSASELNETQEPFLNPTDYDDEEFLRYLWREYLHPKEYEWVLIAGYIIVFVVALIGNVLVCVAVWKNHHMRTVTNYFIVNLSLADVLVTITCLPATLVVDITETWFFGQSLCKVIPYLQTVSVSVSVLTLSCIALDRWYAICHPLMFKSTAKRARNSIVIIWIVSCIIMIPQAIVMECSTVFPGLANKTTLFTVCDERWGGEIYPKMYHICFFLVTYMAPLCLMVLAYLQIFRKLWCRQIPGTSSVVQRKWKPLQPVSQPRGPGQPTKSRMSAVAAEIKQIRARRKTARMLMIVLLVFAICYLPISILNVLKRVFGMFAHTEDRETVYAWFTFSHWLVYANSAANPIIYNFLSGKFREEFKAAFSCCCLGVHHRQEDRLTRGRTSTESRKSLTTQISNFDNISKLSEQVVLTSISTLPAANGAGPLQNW
- protocol.details: Antagonist activity at human orexin receptor 2 expressed in CHO cells assessed as inhibition of orexin-A-induced calcium flux by FLIPR assay
pIC50: −log10 of the molar value.
Use 8 as the dividing line for pIC50, with the line itself on the satisfied side and lower values as not satisfied.

Cc1c(S(=O)(=O)Cc2ccccc2)c2ccccn2c1CC(=O)N(C)Cc1ccccc1	satisfied
CN(Cc1ccc(F)cc1)C(=O)Cn1cc(S(=O)(=O)Cc2ccc(F)cc2)c2ccccc21	satisfied

Item `O=C(Cn1cc(S(=O)(=O)Cc2ccc(F)cc2)c2ccccc21)NCc1ccc(F)cc1` with pIC50 of 8 or above?
not satisfied

Please indicate if the recorded pIC50 for `CN(Cc1ccc(F)cc1)C(=O)Cc1nc(S(=O)(=O)Cc2ccccc2)c2ccccn12` meets or exceeds 8.
not satisfied

Threshold query (pIC50 >= 8) on `Cc1c(S(=O)(=O)Cc2ccccc2)c2ccccn2c1CC(=O)N(C)Cc1ccc(F)cc1`
satisfied

API: above_or_equal(metric=pIC50, cutoff=8) for item Cc1cccc(-c2sc(C)nc2C(=O)N2CCC2CNC(=O)c2c(N)nc3sccn23)c1 (racemic)
satisfied

Could you please find out whether `CN(Cc1ccccc1)C(=O)Cn1cc(S(=O)(=O)Cc2ccccc2)c2ccccc21` has pIC50 that meets 8 or exceeds it?
not satisfied

====

- tgt: UniProt:P21728
- Sequence (P21728 whole entry): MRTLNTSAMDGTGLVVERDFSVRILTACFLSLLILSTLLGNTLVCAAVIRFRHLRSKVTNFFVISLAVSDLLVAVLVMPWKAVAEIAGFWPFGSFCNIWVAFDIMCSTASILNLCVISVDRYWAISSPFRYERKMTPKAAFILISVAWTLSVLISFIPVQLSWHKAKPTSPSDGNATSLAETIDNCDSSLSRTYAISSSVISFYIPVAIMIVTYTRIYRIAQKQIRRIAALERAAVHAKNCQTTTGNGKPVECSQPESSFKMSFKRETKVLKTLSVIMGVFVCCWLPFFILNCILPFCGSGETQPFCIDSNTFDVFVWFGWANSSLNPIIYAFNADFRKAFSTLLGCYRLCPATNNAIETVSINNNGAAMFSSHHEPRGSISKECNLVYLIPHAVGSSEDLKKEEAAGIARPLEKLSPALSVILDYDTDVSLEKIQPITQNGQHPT
- protocol.details: Binding affinity to dopamine D1 receptor (unknown origin)
readout.kind: pKi
Give bare numbers, as −log10 of the molar value.

Give its pKi value. Item: `Cc1cc(NC(=O)Nc2ccc(N(C)C)cc2)c2cc(F)cc(F)c2n1`
5.75
